Reference source: patent US4766111A

Test target: plasmin (Homo sapiens)
Measurement notes: Antiplasmin/plasmin inhibitory activity
Format: biochemical
Details: Table 3; absorbance at 405nm; remaining active plasmin, substrate S-225
So I've got a bunch of sequences here, and I need their ABSORBANCE values.
Write no unit; give the number alone.

Input CERAMIDE TRIHEXOSIDE [PURIFIED CERAMIDE TRIHEXOSIDE] , output reported ABSORBANCE.
0.184

Input DIGALACTOSYL DIGLYCERIDE [PURIFIED DIGALACTOSYL DIGLYCERIDE] , output reported ABSORBANCE.
0.190

Input PHOSPHATIDYL INOSITOL [PURIFIED PHOSPHATIDYL INOSITOL] , output reported ABSORBANCE.
0.187

* * *

Test target: plasmin (Homo sapiens, UniProt P00747)
Sequence (P00747 581-810 limits assumed, species assumed): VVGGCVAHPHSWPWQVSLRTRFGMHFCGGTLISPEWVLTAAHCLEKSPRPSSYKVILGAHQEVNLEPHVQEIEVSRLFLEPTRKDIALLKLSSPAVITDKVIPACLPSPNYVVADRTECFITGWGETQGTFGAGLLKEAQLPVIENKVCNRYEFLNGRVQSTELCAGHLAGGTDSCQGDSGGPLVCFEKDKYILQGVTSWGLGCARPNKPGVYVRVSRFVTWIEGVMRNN
Sequence (P00747 97-580 limits assumed, species assumed): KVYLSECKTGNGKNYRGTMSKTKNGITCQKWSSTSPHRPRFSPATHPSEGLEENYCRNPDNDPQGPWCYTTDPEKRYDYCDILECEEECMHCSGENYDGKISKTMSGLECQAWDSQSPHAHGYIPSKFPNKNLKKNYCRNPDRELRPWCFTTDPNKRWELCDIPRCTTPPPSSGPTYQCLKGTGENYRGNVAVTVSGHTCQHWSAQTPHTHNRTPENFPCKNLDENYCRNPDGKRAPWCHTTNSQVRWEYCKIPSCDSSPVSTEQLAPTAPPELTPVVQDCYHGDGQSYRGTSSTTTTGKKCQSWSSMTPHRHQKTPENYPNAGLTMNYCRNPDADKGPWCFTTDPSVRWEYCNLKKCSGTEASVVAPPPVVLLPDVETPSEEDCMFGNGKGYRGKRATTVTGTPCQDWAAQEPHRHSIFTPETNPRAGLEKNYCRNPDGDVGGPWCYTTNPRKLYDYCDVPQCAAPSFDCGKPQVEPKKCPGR
Measurement notes: Antiplasmin/plasmin inhibitory activity
Format: biochemical
Details: Table 3; by reference to normal human pooled plasma standard curve
Measurement label: % INHIBITION (%)
Give the value, in units of %, as a plain number.

Input PHOSPHATIDYL INOSITOL [PURIFIED PHOSPHATIDYL INOSITOL] , output reported % INHIBITION.
0

Input CERAMIDE TRIHEXOSIDE [PURIFIED CERAMIDE TRIHEXOSIDE] , output reported % INHIBITION.
0

Input `SPHINGOMYELIN` , output reported % INHIBITION.
18

Input DIGALACTOSYL DIGLYCERIDE [PURIFIED DIGALACTOSYL DIGLYCERIDE] , output reported % INHIBITION.
0
